system: Plasmodium berghei; test: Screen against P. berghei liver stage (PbLuc), transformed with Luciferase, at 2uM; format: functional, HepG2; conditions: tested at 2 uM
The campaign covered roughly 68,000 compounds. About 2,700 (4%) showed an effect of 50% or more. The sample holds strong results, similar compounds and a random draw of the others, so the mix is not that of the screen.
property label: INHIBITION
Form entry: enter the amount, then its unit.

Previously resolved entries follow.
compound=Cc1cccc(CN2CC[C@@H]3[C@@H]2CCN3Cc2cccs2)n1 property_label=INHIBITION recorded_result=-18.6%
compound=Cc1cccc(CN2C(=O)C[C@H]3[C@@H]2CCN3Cc2cccs2)n1 property_label=INHIBITION recorded_result=63.06%
compound=CNS(=O)(=O)c1cccc(CNC(=O)c2cnn(C)c2C)c1 property_label=INHIBITION recorded_result=-2.2%

Query compound follows.
Entry CC1CN(Cc2nnsc2Cl)CCN1c1nccs1 (centres undefined) — recorded INHIBITION = 24.82%
